Target: Fuc(a1-3)[GalNAc(b1-4)]GlcNAc
Assay: glycan array binding signal (z-score within array); higher = stronger binding
Conditions: glycan notation: IUPAC condensed, linker removed
About 410 targets per protein were measured; listed, in parts, are those with the strongest signals and a random draw of the rest.
quantity: glycan array binding signal (z-score)
Please give only the number in your answer, with no unit.

IN: # input binder: AT5G01260(PC)(40) (Arabidopsis thaliana), Q9LFB0 (protein) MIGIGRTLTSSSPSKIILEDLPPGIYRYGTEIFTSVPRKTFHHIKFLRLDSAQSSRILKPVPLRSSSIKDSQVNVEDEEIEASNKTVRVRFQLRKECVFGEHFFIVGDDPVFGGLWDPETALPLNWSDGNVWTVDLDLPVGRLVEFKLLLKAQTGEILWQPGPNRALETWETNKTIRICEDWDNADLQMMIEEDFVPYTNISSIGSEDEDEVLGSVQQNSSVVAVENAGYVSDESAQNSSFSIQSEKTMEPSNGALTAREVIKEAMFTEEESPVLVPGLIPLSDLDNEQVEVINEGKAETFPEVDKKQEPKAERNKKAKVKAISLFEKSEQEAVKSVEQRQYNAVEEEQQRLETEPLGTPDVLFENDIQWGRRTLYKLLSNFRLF ; wanted: its glycan array binding signal (z-score)
OUT: 1.78

IN: Give the measured glycan array binding signal (z-score) of SalT (Orysata sativa) (protein) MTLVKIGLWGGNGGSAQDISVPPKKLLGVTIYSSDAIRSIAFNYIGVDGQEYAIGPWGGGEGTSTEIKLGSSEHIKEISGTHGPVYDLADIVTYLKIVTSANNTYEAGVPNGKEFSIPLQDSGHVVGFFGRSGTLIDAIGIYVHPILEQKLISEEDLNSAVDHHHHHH .
OUT: -0.306

IN: Which measured glycan array binding signal (z-score) value corresponds to Tamarinin (protein) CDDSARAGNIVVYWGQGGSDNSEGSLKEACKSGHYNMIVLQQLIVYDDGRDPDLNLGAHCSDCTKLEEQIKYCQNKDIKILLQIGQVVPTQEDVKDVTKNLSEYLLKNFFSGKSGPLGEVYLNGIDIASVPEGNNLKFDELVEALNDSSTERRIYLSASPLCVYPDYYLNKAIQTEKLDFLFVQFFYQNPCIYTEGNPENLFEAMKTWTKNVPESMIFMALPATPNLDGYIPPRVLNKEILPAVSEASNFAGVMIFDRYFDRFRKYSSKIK ?
OUT: -0.154

IN: Look at this binder and give its reported glycan array binding signal (z-score). EPL1 (Trichoderma atroviride), A0PCX2 (protein) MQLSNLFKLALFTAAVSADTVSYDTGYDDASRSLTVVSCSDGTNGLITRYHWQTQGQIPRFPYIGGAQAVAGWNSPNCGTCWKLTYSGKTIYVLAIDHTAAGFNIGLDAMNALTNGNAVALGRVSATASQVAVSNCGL
OUT: 0.203

IN: Quick one: glycan array binding signal (z-score) of CLEC7A (Homo sapiens), Q9BXN2 (protein) MEYHPDLENLDEDGYTQLHFDSQSNTRIAVVSEKGSCAASPPWRLIAVILGILCLVILVIAVVLGTMAIWRSNSGSNTLENGYFLSRNKENHSQPTQSSLEDSVTPTKAVKTTGVLSSPCPPNWIIYEKSCYLFSMSLNSWDGSKRQCWQLGSNLLKIDSSNELGFIVKQVSSQPDNSFWIGLSRPQTEVPWLWEDGSTFSSNLFQIRTTATQENPSPNCVWIHVSVIYDQLCSVPSYSICEKKFSM ?
OUT: -0.149
